System: RARg:RXRa (NR concentration 270 nM, RXRa partner concentration 90 nM)
Assay details: PBM binding z-score (relative to random genomic background probes); higher = stronger binding; sequences stand for … in GC…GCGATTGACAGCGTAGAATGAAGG
Everything with PBM binding z-score lower than 0.6 is F; everything else, including exactly 0.6, is T.

Entry sequence: CTCGAAAGGTCGGATGAGGTGAGTATACGGATAA
Category label: T

INPUT: Given CCTAGCAGGCCACTCTGGGTCACTCAAGGCTTGA , state whether its PBM binding z-score is at least 0.6.
OUTPUT: T

INPUT: Also, ACTATTAGTTGAGACGAGGGCAACAGATAGGTTG please.
OUTPUT: T

INPUT: Same thing, different sequence: ATCTCTAGGTAACCAAGTCCAGTGAATGCCGAAC
OUTPUT: F

INPUT: Param item: TCATATAGGTAAATGCAAGGTGAAAGTCCGATCT
OUTPUT: T

INPUT: Let us now turn to CGAAGTAGGTCAGAACAGGACAGTGAAGGATGAT
OUTPUT: T

INPUT: Another sequence: TCATATAGGTAAAGGCGAAAGTCGAACGATATGA
OUTPUT: F

INPUT: Same lookup for ATACCAAGGTGATCGTGAGGTCATTGATACTAAC , please.
OUTPUT: T

INPUT: Please answer likewise for CGTCCAAGGTCAGCAGGCCAGTGAAAGCGACGTG
OUTPUT: T

INPUT: Another: ACTAGCAGGCCAAGTTTGGGTGACTCAAACAAAG
OUTPUT: F

INPUT: Entry to check: TGAATGAGCTTATAAGATCAGGGAACGTTGCAAA
OUTPUT: F

INPUT: Param item: GCGACTGGGGCATCAGCAGGTTACCATCACTTAA
OUTPUT: T

INPUT: Try this sequence too: GCTAGTTGGTCAGTAAAAGGTCTCACACCGGTCG
OUTPUT: F

INPUT: Now this one: TTACCAAGGTGAAGGTCGCTGATCCCTCTGTAGA
OUTPUT: T

INPUT: What do we get for TGAACGAGGTTAAAGATCAGGGAACGTGGCGTCG ?
OUTPUT: T

INPUT: Follow-up entry: ACAGCCAGGTGATGAAGGTAACTCAGGCTATCAT
OUTPUT: F

INPUT: Continue with TCTAGCAGGCCAGGGGGTCACTCAAGAGGTACGG
OUTPUT: T

----------
Tested on: LXRb:RXRa (NR concentration 270 nM, RXRa partner concentration 90 nM)
Assay details: PBM binding z-score (relative to random genomic background probes); higher = stronger binding; sequences stand for … in GC…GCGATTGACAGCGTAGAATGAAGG
Experimental endpoint: PBM binding z-score

Entry sequence: TTCCCAAGGTGAAAGGTCGTTGATGCACGCCTTG
Experimental endpoint: PBM binding z-score
Observed result: 2.97
//
Entry sequence: TCTTGTAGATCAAAGGTTAATAAAGCCGAAGCCT
Experimental endpoint: PBM binding z-score
Observed result: 2.03
//
Entry sequence: CCGACTGGGCCATCAGGTCATTGATATCAACGTT
Experimental endpoint: PBM binding z-score
Observed result: 1.38
//
Entry sequence: AATACTGGGTCACTAGGCCAGAGTAGGTACGAAT
Experimental endpoint: PBM binding z-score
Observed result: 1.5
//
Entry sequence: ACTAGCAGGCCAAGTTTAGGTCACTCAAACAAAG
Experimental endpoint: PBM binding z-score
Observed result: 0.929
//
Entry sequence: CAGCCTAGGTCAGGGCCAGTACAGGAGGAACGTT
Experimental endpoint: PBM binding z-score
Observed result: 0.431
//
Entry sequence: TCATATAGGTAAATACTAGGTGAAAGTCCGATCT
Experimental endpoint: PBM binding z-score
Observed result: 0.889
//
Entry sequence: ACAATGAGGTTATTAAGATCAGGGAATTGCGGTC
Experimental endpoint: PBM binding z-score
Observed result: 1.26

INPUT: Fill blank: measured PBM binding z-score of the sequence CCTAGTTGGTCAGGAGGTCAAACACCGGATATGA is ____.
OUTPUT: 4.03

INPUT: And the next one, GTACCAAGGTTAATAGGTCGTTGATGAGTAGGCG ?
OUTPUT: 1.34

INPUT: Again, but for ATCTCTAGGTAAAGCTAGTTCAGTGAATGCAAAT
OUTPUT: 0.175

INPUT: And for GATACAGGGTCAGCTAGAGCCCAGAGTATGGAAA ?
OUTPUT: 2.18
